# Tested on: Rattus norvegicus
# Method: Toxicity in albino rat assessed as ulcerogenic activity at 100 mg/kg, po after 5 hrs
# Type: organism-based
# Design: dose 100 mg/kg, route oral
# Experimental parameters: in vivo
Outcome: yes (1) for Activity of at least 10%; no (0) for anything lower.

Does the compound CCCCC1C(=O)N(c2ccccc2)N(c2ccccc2)C1=O [PHENYLBUTAZONE] have recorded Activity that is 10% or more?
yes (1)

Is it the case that "COc1cc(OC)nc(Oc2ccc(C)cc2C(=O)c2ccc(C)cc2)n1" has Activity reaching or exceeding 10%?
yes (1)

API: above_or_equal(metric=Activity, cutoff=10%) for item CC(=O)Oc1ccccc1C(=O)O [ASPIRIN]
yes (1)

Hello, I need to know if "COc1cc(OC)nc(Oc2ccc(C)cc2C(=O)c2ccc(Cl)cc2)n1" has measured Activity not below 10%. Thanks!
yes (1)

Check if Activity >= 10% (inclusive). Item: "COc1cc(OC)nc(Oc2ccc(Br)cc2C(=O)c2ccc(Cl)cc2)n1"
no (0)

###

Answer each item with its documented Activity.
# System: Rattus norvegicus
# Method: Toxicity in albino rat with hyperemia assessed as ulcerogenic activity at 200 mg/kg, po after 5 hrs
# Format: organism-based
# Parameters: dose 200 mg/kg, route oral
# Experimental parameters: in vivo
Express the result in % but write the number alone.

Tell me Activity reported for "COc1cc(OC)nc(Oc2ccc(C)cc2C(=O)c2ccc(Cl)cc2)n1"
40

Given "CCCCC1C(=O)N(c2ccccc2)N(c2ccccc2)C1=O" , respond with its Activity.
60

Give a short answer stating reported Activity for "COc1cc(OC)nc(Oc2ccc(F)cc2C(=O)c2ccc(Cl)cc2)n1" .
60

Find the measured Activity of "CC(=O)Oc1ccccc1C(=O)O" and report it.
60

Report Activity for "COc1cc(OC)nc(Oc2ccc(Cl)cc2C(=O)c2ccc(Cl)cc2)n1"
60

Query Activity for "COc1cc(OC)nc(Oc2ccc(Br)cc2C(=O)c2ccc(Cl)cc2)n1"
70

Tell me Activity reported for "COc1cc(OC)nc(Oc2ccc(C)cc2C(=O)c2ccc(C)cc2)n1"
70

Let me know recorded Activity for "COc1cc(OC)nc(Oc2ccc(F)cc2C(=O)c2ccc(C)cc2)n1" , thanks.
90

###

# Assay target: Phospholipase A2 (Rattus norvegicus) (UniProt P04055)
# Sequence (P04055 whole entry): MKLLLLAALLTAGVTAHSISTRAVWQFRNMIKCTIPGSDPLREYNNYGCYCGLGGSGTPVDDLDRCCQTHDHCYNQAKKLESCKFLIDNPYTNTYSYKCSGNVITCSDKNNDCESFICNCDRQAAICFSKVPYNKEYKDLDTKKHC
# Method: Inhibition of rat PLA2 using [14C]oleate labeled autoclaved Escherichia coli at 10 ug
Tick true if inhibition is 40% or greater. Tick false if inhibition is less than 40%.

Given "CCCCC1C(=O)N(c2ccccc2)N(c2ccccc2)C1=O" , state whether its inhibition is at least 40%.
true

Assess whether reported inhibition for "COc1cc(OC)nc(Oc2ccc(F)cc2C(=O)c2ccc(Cl)cc2)n1" sits at 40% or higher.
true

Hi, just wondering whether "COc1cc(OC)nc(Oc2ccc(Br)cc2C(=O)c2ccc(Cl)cc2)n1" shows inhibition of 40% or higher.
false

Entry "COc1cc(OC)nc(Oc2ccc(C)cc2C(=O)c2ccc(C)cc2)n1" : is its inhibition no less than 40%?
false

Is inhibition at least 40%? Consider "COc1cc(OC)nc(Oc2ccc(C)cc2C(=O)c2ccc(Cl)cc2)n1"
true

Please tell me: is the compound "CC(=O)Oc1ccccc1C(=O)O" at or over 40% in terms of inhibition?
true

Entry "COc1cc(OC)nc(Oc2ccc(F)cc2C(=O)c2ccc(C)cc2)n1" : is its inhibition no less than 40%?
false

###

# System: Rattus norvegicus
# Method: Toxicity in albino rat assessed as ulcerogenic activity at 400 mg/kg, po after 5 hrs
# Type: organism-based
# Parameters: dose 400 mg/kg, route oral
# Experimental parameters: in vivo
Measure: Activity
Just the number plus its unit, please.

Please report the measured Activity for "COc1cc(OC)nc(Oc2ccc(C)cc2C(=O)c2ccc(C)cc2)n1"
40%

Indicate the recorded Activity value for this compound: "COc1cc(OC)nc(Oc2ccc(Cl)cc2C(=O)c2ccc(Cl)cc2)n1"
40%

// Input: "COc1cc(OC)nc(Oc2ccc(F)cc2C(=O)c2ccc(C)cc2)n1" . Output its Activity only.
40%

###

Assignment: determine reported Activity for the given compounds.
# Test system: Rattus norvegicus
# Method: Toxicity in albino rat with hyperemia assessed as ulcerogenic activity at 100 mg/kg, po after 5 hrs
# Format: organism-based
# Design: dose 100 mg/kg, route oral
# Experimental parameters: in vivo
The reply should contain only the number, in %.

State recorded Activity with Rattus norvegicus, entry "COc1cc(OC)nc(Oc2ccc(C)cc2C(=O)c2ccc(Cl)cc2)n1" , no comment.
20

Report Activity on Rattus norvegicus for this entry: CCCCC1C(=O)N(c2ccccc2)N(c2ccccc2)C1=O [PHENYLBUTAZONE]
30

Send back Rattus norvegicus Activity of "COc1cc(OC)nc(Oc2ccc(Cl)cc2C(=O)c2ccc(Cl)cc2)n1" only.
40

Please look at "COc1cc(OC)nc(Oc2ccc(F)cc2C(=O)c2ccc(C)cc2)n1" and tell me its recorded Activity on Rattus norvegicus.
70

Quote Activity with test system Rattus norvegicus for CC(=O)Oc1ccccc1C(=O)O [ASPIRIN]
30

###

# Tested on: Rattus norvegicus
# Method: Toxicity in albino rat assessed as ulcerogenic activity at 200 mg/kg, po after 5 hrs
# Type: organism-based
# Design: dose 200 mg/kg, route oral
# Experimental parameters: in vivo
Provide the recorded Activity for the entries that follow.
Provide the reading as a plain figure in %.

Give reported Activity value for "COc1cc(OC)nc(Oc2ccc(F)cc2C(=O)c2ccc(C)cc2)n1"
20

Retrieve Activity measured for "COc1cc(OC)nc(Oc2ccc(Cl)cc2C(=O)c2ccc(Cl)cc2)n1" and print it.
20

Quickly give me recorded Activity for "COc1cc(OC)nc(Oc2ccc(F)cc2C(=O)c2ccc(Cl)cc2)n1"
20

###

# Tested on: Rattus norvegicus
# Method: Toxicity in albino rat assessed as ulcerogenic activity at 100 mg/kg, po after 5 hrs
# Assay type: organism-based
# Parameters: dose 100 mg/kg, route oral
# Experimental parameters: in vivo
Measure: Activity (%)
Use % as the unit, but write only the number.

Consider the molecule "COc1cc(OC)nc(Oc2ccc(F)cc2C(=O)c2ccc(Cl)cc2)n1" and give its recorded Activity.
10

State, in one line, measured Activity of "COc1cc(OC)nc(Oc2ccc(F)cc2C(=O)c2ccc(C)cc2)n1"
10

Specify Activity for "COc1cc(OC)nc(Oc2ccc(Cl)cc2C(=O)c2ccc(Cl)cc2)n1" and stop.
10

All values here come from ChEMBL document CHEMBL1155856.
